Test system: MDA-MB-231 (breast cancer)
ASSAY OVERVIEW: MTT antiproliferative assay, MDA-MB-231
Assay type: cell-based
EXPERIMENTAL PARAMETERS: Homo sapiens, MDA-MB-231, 10 μM, 48 or 72 h, read-out: inhibition of cell growth, MDA-MB-231
inhibition at 10 µM: recorded values

For the compound "[2H]C([2H])([2H])O[C@]1(C)C(=O)C(=O)C=C2C1=CC=C1[C@@]2(C)CC[C@@]2(C)[C@@H]3C[C@](C)(C(=O)O)CC[C@]3(C)CC[C@]12C" , the measured inhibition at 10 µM on MDA-MB-231 (breast cancer) was 50 to 80%

The value of inhibition at 10 µM recorded for CO[C@@]1(C)C2=CC=C3[C@@](C)(CC[C@@]4(C)[C@@H]5C[C@](C)(C(=O)O)CC[C@]5(C)CC[C@]34C)C2=CC(O)C1O (some centres unmarked) when tested on MDA-MB-231 (breast cancer) reads < 30%

inhibition at 10 µM of CO[C@@]1(C)C2=CC=C3[C@@](C)(CC[C@@]4(C)[C@@H]5C[C@](C)(C(=O)O)CC[C@]5(C)CC[C@]34C)C2=CC2(O)OCCN=C21 (some centres unmarked) , assay on MDA-MB-231 (breast cancer), is 50 to 80%

// returns inhibition at 10 µM for "CO[C@@]1(C)C2=CC=C3[C@@](C)(CC[C@@]4(C)[C@@H]5C[C@](C)(C(=O)OCc6ccccc6)CC[C@]5(C)CC[C@]34C)C2=CC(=O)[C@@H]1O" with MDA-MB-231 (breast cancer); value = ≥ 80%

Note to self: inhibition at 10 µM of "COC(=O)[C@]1(C)CC[C@]2(C)CC[C@]3(C)C4=CC=C5C(=CC(=O)[C@H](O)[C@@]5(C)OC)[C@]4(C)CC[C@@]3(C)[C@@H]2C1" with MDA-MB-231 (breast cancer) was ≥ 80%

---

Tested on: A549 (lung adenocarcinoma)
ASSAY OVERVIEW: MTT antiproliferative assay, A549
Type: cell-based
EXPERIMENTAL PARAMETERS: Homo sapiens, A549, 10 μM, 48 or 72 h, read-out: inhibition of cell growth, A549
inhibition at 10 µM listing for selected compounds.

CO[C@@]1(C)C2=CC=C3[C@@](C)(CC[C@@]4(C)[C@@H]5C[C@](C)(C(=O)O)CC[C@]5(C)CC[C@]34C)C2=CC(=NO)[C@@H]1O	< 30%
CCNC(=O)[C@]1(C)CC[C@]2(C)CC[C@]3(C)C4=CC=C5C(=CC(=O)C(=O)[C@@]5(C)OC)[C@]4(C)CC[C@@]3(C)[C@@H]2C1	30 to 50%
CO[C@]1(C)C(=O)C(=O)C=C2C1=CC=C1[C@@]2(C)CC[C@@]2(C)[C@@H]3C[C@](C)(CO)CC[C@]3(C)CC[C@]12C	< 30%
CO[C@@]1(C)C2=CC=C3[C@@](C)(CC[C@@]4(C)[C@@H]5C[C@](C)(C(=O)N6CCOCC6)CC[C@]5(C)CC[C@]34C)C2=CC(=O)[C@@H]1O	≥ 80%
CO[C@@]1(C)C2=CC=C3[C@@](C)(CC[C@@]4(C)[C@@H]5C[C@](C)(C(=O)O)CC[C@]5(C)CC[C@]34C)C2=CC(=O)C1=NNC(C)=O	< 30%
CO[C@@]1(C)C2=CC=C3[C@@](C)(CC[C@@]4(C)[C@@H]5C[C@](C)(C(=O)O)CC[C@]5(C)CC[C@]34C)C2=CC(=O)/C1=C\C#N	30 to 50%
CO[C@@]1(C)C2=CC=C3[C@@](C)(CC[C@@]4(C)[C@@H]5C[C@](C)(C(=O)NO)CC[C@]5(C)CC[C@]34C)C2=CC2(O)OCCN=C21 (stereo partly shown)	≥ 80%
CO[C@@]1(C)C2=CC=C3[C@@](C)(CC[C@@]4(C)[C@@H]5C[C@](C)(C#N)CC[C@]5(C)CC[C@]34C)C2=CC(=O)[C@@H]1O	30 to 50%

compound "CO[C@@]1(C)C2=CC=C3[C@@](C)(CC[C@@]4(C)[C@@H]5C[C@](C)(C(=O)OCc6ccccc6)CC[C@]5(C)CC[C@]34C)C2=CC(=O)[C@@H]1O" , inhibition at 10 µM observed: ≥ 80%

// sample COC(=O)[C@]1(C)CC[C@]2(C)CC[C@]3(C)C4=CC=C5C(=CC(=O)C(O)C5(C)O)[C@]4(C)CC[C@@]3(C)[C@@H]2C1 (stereo partly shown) , its inhibition at 10 µM was ≥ 80%

So, CC(=O)OC1(C)C(=O)C(=O)C=C2C1=CC=C1[C@@]2(C)CC[C@@]2(C)[C@@H]3C[C@](C)(C(=O)O)CC[C@]3(C)CC[C@]12C (stereo partly shown) ? Its inhibition at 10 µM was 50 to 80%

The compound identified as CO[C@@]1(C)C2=CC=C3[C@@](C)(CC[C@@]4(C)[C@@H]5C[C@](C)(C(=O)O)CC[C@]5(C)CC[C@]34C)C2=CC2(O)OCCN=C21 (stereo partly shown) registered its inhibition at 10 µM at 50 to 80%

What the record says about "CO[C@@]1(C)C2=CC=C3[C@@](C)(CC[C@@]4(C)[C@@H]5C[C@](C)(C(=O)O)CC[C@]5(C)CC[C@]34C)C2=CC(=O)C1=NNC(=O)c1ccncc1" : inhibition at 10 µM is < 30%

Query "CO[C@@]1(C)C2=CC=C3[C@@](C)(CC[C@@]4(C)[C@@H]5C[C@](C)(C(=O)O)CC[C@]5(C)CC[C@]34C)C2=CC(=O)/C1=C/C#N" yields inhibition at 10 µM of 50 to 80%

"CO[C@]1(C)C(=O)C(=O)C=C2C1=CC=C1[C@@]2(C)CC[C@@]2(C)[C@@H]3C[C@](C)(C(=O)F)CC[C@]3(C)CC[C@]12C" has a reported inhibition at 10 µM of 50 to 80%

// recorded inhibition at 10 µM for CCCC(=O)O[C@H]1C(O)C=C2C(=CC=C3[C@@]2(C)CC[C@@]2(C)[C@@H]4C[C@](C)(C(=O)OC)CC[C@]4(C)CC[C@]32C)[C@]1(C)OC (stereo partly shown) : < 30%

Value of measured inhibition at 10 µM for the entry COC(=O)[C@]1(C)CC[C@]2(C)CC[C@]3(C)C4=CC=C5C(=CC(=O)C(=O)C5(C)O)[C@]4(C)CC[C@@]3(C)[C@@H]2C1 (stereo partly shown) : ≥ 80%

Quick note, inhibition at 10 µM for COC(=O)[C@]1(C)CC[C@]2(C)CC[C@]3(C)C4=CC=C5C(=CC(=O)/C(=C\C#N)C5(C)O)[C@]4(C)CC[C@@]3(C)[C@@H]2C1 (stereo partly shown) landed at 30 to 50%

Lab note: measured inhibition at 10 µM of COC(=O)[C@]1(C)CC[C@]2(C)CC[C@]3(C)C4=CC=C5C(=CC(=O)/C(=C/C#N)C5(C)O)[C@]4(C)CC[C@@]3(C)[C@@H]2C1 (stereo partly shown) was 50 to 80%

Lab note: measured inhibition at 10 µM of "CO[C@@]1(C)C2=CC=C3[C@@](C)(CC[C@@]4(C)[C@@H]5C[C@](C)(C(N)=O)CC[C@]5(C)CC[C@]34C)C2=CC(=O)/C1=C\C#N" was ≥ 80%

"CO[C@]1(C)C(=O)C2(C=C3C1=CC=C1[C@@]3(C)CC[C@@]3(C)[C@@H]4C[C@](C)(C(=O)O)CC[C@]4(C)CC[C@]13C)OCCO2" yielded inhibition at 10 µM of < 30%

The compound listed as "CCO[C@]1(C)C(=O)C(=O)C=C2C1=CC=C1[C@@]2(C)CC[C@@]2(C)[C@@H]3C[C@](C)(C(=O)O)CC[C@]3(C)CC[C@]12C" has a reported inhibition at 10 µM of 30 to 50%
